In this section, each of the molecules is paired with its reported EC50.
Test system: HIV-1 wild type
PROTOCOL SUMMARY: microbe, parasite or virus in culture
Type: cell-based
MEASUREMENT SETUP: wild type; read-out: EC50 WT RT
OBSERVABLE: EC50

SMILES STR | ENDPOINT VALUE
CCN1c2ncc(CCOc3ccc(-c4cccc(CC(=O)O)c4)cc3C)cc2C(=O)N(C)c2cccnc21 | < 0.01 µM
CCN1c2ncc(CCOc3ccc(-c4ccc(C(=O)O)cc4)cc3)cc2C(=O)N(C)c2ccc(Cl)nc21 | < 0.01 µM
CCN1c2ncccc2NC(=O)c2cc(CCOc3ccc(-c4ccc[n+]([O-])c4)cc3C)cnc21 | < 0.01 µM
CCN1c2ncccc2NC(=O)c2cc(CCOc3ccc(-c4ccc(CC(=O)O)cc4)cc3C)cnc21 | < 0.01 µM
CCN1c2ncc(CCOc3ccc(-c4ccccc4)cc3)cc2C(=O)N(C)c2cccnc21 | < 0.01 µM
CCN1c2ncc(CCOc3ccc(-c4ccc(CC(=O)O)cc4)cc3CO)cc2C(=O)N(C)c2cccnc21 | < 0.01 µM
CCN1c2ncc(CCOc3ccc(C(=O)Nc4cccc[n+]4[O-])cc3C)cc2C(=O)Nc2c(C)ccnc21 | < 0.01 µM
CCN1c2ncc(CCOc3ccc(C(=O)Nc4ccc(C(=O)O)cc4)cc3C)cc2C(=O)Nc2c(C)ccnc21 | 0.01 to 0.05 µM
CCN1c2ncc(CCOc3ccc(-c4ccc(C(=O)O)cc4)cc3F)cc2C(=O)N(C)c2cccnc21 | < 0.01 µM
CCN1c2ncc(CCOc3ccc(-c4ccc(C(=O)O)cc4)c(Cl)c3)cc2C(=O)N(C)c2cccnc21 | 0.01 to 0.05 µM
